Biological target: TNKS2 (Homo sapiens, UniProt Q9H2K2)
Sequence (Q9H2K2 whole entry): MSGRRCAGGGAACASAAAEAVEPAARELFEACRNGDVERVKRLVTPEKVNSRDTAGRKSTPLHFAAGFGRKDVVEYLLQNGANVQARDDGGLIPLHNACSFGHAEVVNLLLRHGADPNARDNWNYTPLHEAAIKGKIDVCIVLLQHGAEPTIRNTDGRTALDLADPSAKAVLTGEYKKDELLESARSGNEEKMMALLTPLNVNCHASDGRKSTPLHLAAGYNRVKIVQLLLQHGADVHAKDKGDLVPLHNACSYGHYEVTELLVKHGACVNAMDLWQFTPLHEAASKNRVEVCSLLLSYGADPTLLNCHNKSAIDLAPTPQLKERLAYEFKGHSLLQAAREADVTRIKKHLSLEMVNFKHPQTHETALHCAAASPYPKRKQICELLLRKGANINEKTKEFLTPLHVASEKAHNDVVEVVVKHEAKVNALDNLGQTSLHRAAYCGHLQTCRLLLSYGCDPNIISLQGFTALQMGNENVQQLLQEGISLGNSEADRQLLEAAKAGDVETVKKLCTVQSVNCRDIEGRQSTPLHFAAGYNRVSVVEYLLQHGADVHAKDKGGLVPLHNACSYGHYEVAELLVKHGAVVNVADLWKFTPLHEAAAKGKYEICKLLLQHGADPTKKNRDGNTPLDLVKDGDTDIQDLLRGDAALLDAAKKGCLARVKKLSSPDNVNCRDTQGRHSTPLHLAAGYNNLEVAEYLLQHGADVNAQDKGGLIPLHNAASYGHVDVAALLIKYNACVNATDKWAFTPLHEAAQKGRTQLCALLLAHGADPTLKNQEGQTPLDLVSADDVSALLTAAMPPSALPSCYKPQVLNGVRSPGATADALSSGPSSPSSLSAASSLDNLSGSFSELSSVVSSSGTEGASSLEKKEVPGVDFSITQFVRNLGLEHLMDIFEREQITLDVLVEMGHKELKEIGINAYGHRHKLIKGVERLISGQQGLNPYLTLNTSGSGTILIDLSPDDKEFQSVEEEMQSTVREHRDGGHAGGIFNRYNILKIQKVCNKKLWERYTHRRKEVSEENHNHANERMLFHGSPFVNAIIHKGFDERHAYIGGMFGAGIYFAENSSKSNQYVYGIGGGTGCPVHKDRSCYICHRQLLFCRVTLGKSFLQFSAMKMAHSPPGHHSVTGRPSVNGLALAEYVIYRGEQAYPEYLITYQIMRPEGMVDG
Test: Modified TNKS2 Assay 2 (auto-parsylation, [3H]-NAD+ SPA)
Assay type: biochemical
Details: 6 nM TNKS2, 96 well
# IC50 annotations
Form entry: value (nM) — number only.

CCNC(=O)c1nc[nH]c1C(=O)Nc1ccc(NC(=O)c2cc(OC)ccc2Cl)cc1 | 480
Cc1cc(NC(=O)c2[nH]cnc2C(=O)NCCN2CCCCC2)ccc1NC(=O)c1ccc(F)cc1Cl | 10
CN1CCN(CC(C)(C)CNC(=O)c2nc[nH]c2C(=O)Nc2ccc(NC(=O)c3ccc(F)cc3Cl)cc2)CC1 | 80

Problem: Look up IC50: O=C(Nc1ccc(NC(=O)c2[nH]cnc2C(=O)NCCc2ccncc2)cc1)c1ccc(F)cc1Cl
Result: 60
